Test system: Setaria faberi (SETFA)
Assay: Pre-emergence herbicidal glasshouse test
Format: in vivo
Conditions: sprayed after one day cultivation, 250 g/ha, evaluated after 13 days, five-point scale
measured-quantity: percentage damage caused to the plant, SETFA

INSERT INTO measurements (smiles_record, test_value) VALUES
  ('Fc1cccc(Oc2ncc(Br)s2)c1-c1cc(C(F)F)no1', '5 (5=81-100%)'),
  ('Fc1cccc(Oc2nc(C(F)F)cs2)c1-c1cc(C(F)F)no1', '5 (5=81-100%)'),
  ('N#Cc1cccc(Oc2ncc(C(F)F)s2)c1-c1cc(C(F)F)no1', '5 (5=81-100%)'),
  ('Cc1cccc(-c2cc(C(F)F)no2)c1Oc1ncc(Cl)s1', '1 (1=0-20%)'),
  ('Fc1cccc(Oc2nc(C(F)F)c(Cl)s2)c1-c1cc(C(F)F)no1', '1 (1=0-20%)');

====

Test system: Amaranthus retoflexus (AMARE)
Assay: Post-emergence herbicidal glasshouse test
Type: in vivo
Conditions: sprayed after 8 days cultivation, 250 g/ha, evaluated after 13 days, five-point scale
Collected percentage damage caused to the plant, AMARE values appear next to each entry.
measured-quantity: percentage damage caused to the plant, AMARE

INSERT INTO assay_data (smiles_record, test_value) VALUES
  ('Cc1cccc(-c2cc(C(F)F)no2)c1Oc1ncc(Cl)s1', '2 (2=21-40%)'),
  ('Cc1cnc(Oc2cccc(F)c2-c2cc(C(F)F)no2)s1', '4 (4=61-80%)'),
  ('FC(F)c1cc(-c2c(Br)cccc2Oc2nc(C(F)F)c(Cl)s2)on1', '1 (1=0-20%)'),
  ('FC(F)c1cc(-c2c(Cl)cccc2Oc2ncc(Br)s2)on1', '5 (5=81-100%)'),
  ('N#Cc1cccc(Oc2ncc(Cl)s2)c1-c1cc(C(F)F)no1', '5 (5=81-100%)'),
  ('FC(F)c1cc(-c2c(Br)cccc2Oc2ncc(C(F)F)s2)on1', '4 (4=61-80%)'),
  ('FC(F)c1cc(-c2c(Br)cccc2Oc2nc(C(F)(F)F)cs2)on1', '4 (4=61-80%)'),
  ('Fc1cccc(Sc2ncc(Cl)s2)c1-c1cc(C(F)F)no1', '4 (4=61-80%)'),
  ('FC(F)c1cc(-c2c(Cl)cccc2Oc2nc(Cl)c(Cl)s2)on1', '5 (5=81-100%)'),
  ('Fc1cccc(Oc2nccs2)c1-c1cc(C(F)F)no1', '2 (2=21-40%)'),
  ('Fc1cccc(Oc2nc(C(F)F)cs2)c1-c1cc(C(F)F)no1', '4 (4=61-80%)'),
  ('N#Cc1cccc(Oc2ncc(Br)s2)c1-c1cc(C(F)F)no1', '5 (5=81-100%)'),
  ('C=Cc1cnc(Oc2cccc(F)c2-c2cc(C(F)F)no2)s1', '2 (2=21-40%)'),
  ('FC(F)c1cc(-c2ccccc2Oc2ncc(Cl)s2)on1', '4 (4=61-80%)'),
  ('Fc1cccc(Oc2nc(Cl)cs2)c1-c1cc(C(F)F)no1', '4 (4=61-80%)'),
  ('Fc1cccc(-c2cc(C(F)F)no2)c1Oc1ncc(Cl)s1', '4 (4=61-80%)'),
  ('Fc1cccc(Oc2nc(C(F)(F)F)cs2)c1-c1cc(C(F)F)no1', '4 (4=61-80%)'),
  ('FC(F)c1cc(-c2ccccc2Oc2ncc(C(F)F)s2)on1', '4 (4=61-80%)'),
  ('FC(F)c1cc(-c2c(Br)cccc2Oc2ncc(Br)s2)on1', '5 (5=81-100%)');

====

Test system: Amaranthus retoflexus (AMARE)
Test: Post-emergence herbicidal glasshouse test
Format: in vivo
Details: sprayed after 8 days cultivation, 250 g/ha, evaluated after 13 days, five-point scale
measured-quantity: percentage damage caused to the plant, AMARE

INSERT INTO assay_data (smiles_record, assay_target, test_value) VALUES
  ('FC(F)c1cc(-c2c(Cl)cccc2Oc2ncc(Cl)s2)on1', 'Amaranthus retoflexus (AMARE)', '5 (5=81-100%)'),
  ('Fc1cccc(Oc2ncc(C(F)F)s2)c1-c1cc(C(F)F)no1', 'Amaranthus retoflexus (AMARE)', '5 (5=81-100%)'),
  ('FC(F)c1cc(-c2c(Br)cccc2Oc2nc(Cl)c(Cl)s2)on1', 'Amaranthus retoflexus (AMARE)', '4 (4=61-80%)'),
  ('FC(F)c1cc(-c2c(Br)cccc2Oc2ncc(Cl)s2)on1', 'Amaranthus retoflexus (AMARE)', '5 (5=81-100%)'),
  ('FC(F)c1cc(-c2c(Cl)cccc2Oc2ncc(C(F)F)s2)on1', 'Amaranthus retoflexus (AMARE)', '4 (4=61-80%)'),
  ('Fc1cccc(Oc2ncc(Br)s2)c1-c1cc(C(F)F)no1', 'Amaranthus retoflexus (AMARE)', '5 (5=81-100%)'),
  ('N#Cc1cccc(Oc2ncc(C(F)F)s2)c1-c1cc(C(F)F)no1', 'Amaranthus retoflexus (AMARE)', '3 (3=41-60%)'),
  ('Fc1cccc(Oc2nc(Br)cs2)c1-c1cc(C(F)F)no1', 'Amaranthus retoflexus (AMARE)', '5 (5=81-100%)'),
  ('Fc1cccc(Oc2nc(C(F)F)c(Cl)s2)c1-c1cc(C(F)F)no1', 'Amaranthus retoflexus (AMARE)', '2 (2=21-40%)'),
  ('Fc1cccc(Oc2ncc(Cl)s2)c1-c1cc(C(F)F)no1', 'Amaranthus retoflexus (AMARE)', '5 (5=81-100%)'),
  ('Fc1cccc(Oc2nc(Cl)c(Cl)s2)c1-c1cc(C(F)F)no1', 'Amaranthus retoflexus (AMARE)', '5 (5=81-100%)');

====

System: Setaria faberi (SETFA)
Test: Pre-emergence herbicidal glasshouse test
Format: in vivo
Settings: sprayed after one day cultivation, 250 g/ha, evaluated after 13 days, five-point scale
Protocol: Seeds of a variety of test species are sown in standard soil in pots Amaranthus retoflexus (AMARE), Echinochloa crus-galli (ECHCG), Setaria faberi (SETFA)). […] After 13 days for pre- and post-emergence, the test is evaluated for the percentage damage caused to the plant. […]
measured-quantity: percentage damage caused to the plant, SETFA

INSERT INTO results (smiles_record, assay_target, test_value) VALUES
  ('FC(F)c1cc(-c2c(Br)cccc2Oc2nc(C(F)(F)F)cs2)on1', 'Setaria faberi (SETFA)', '5 (5=81-100%)'),
  ('Fc1cccc(Oc2ncc(Cl)s2)c1-c1cc(C(F)F)no1', 'Setaria faberi (SETFA)', '5 (5=81-100%)'),
  ('FC(F)c1cc(-c2c(Cl)cccc2Oc2ncc(C(F)F)s2)on1', 'Setaria faberi (SETFA)', '5 (5=81-100%)'),
  ('FC(F)c1cc(-c2c(Br)cccc2Oc2nc(Cl)c(Cl)s2)on1', 'Setaria faberi (SETFA)', '4 (4=61-80%)'),
  ('Fc1cccc(Oc2nc(C(F)(F)F)cs2)c1-c1cc(C(F)F)no1', 'Setaria faberi (SETFA)', '5 (5=81-100%)'),
  ('Fc1cccc(Oc2nc(Cl)c(Cl)s2)c1-c1cc(C(F)F)no1', 'Setaria faberi (SETFA)', '2 (2=21-40%)'),
  ('FC(F)c1cc(-c2ccccc2Oc2ncc(C(F)F)s2)on1', 'Setaria faberi (SETFA)', '4 (4=61-80%)'),
  ('N#Cc1cccc(Oc2ncc(Br)s2)c1-c1cc(C(F)F)no1', 'Setaria faberi (SETFA)', '4 (4=61-80%)'),
  ('FC(F)c1cc(-c2c(Cl)cccc2Oc2nc(Cl)c(Cl)s2)on1', 'Setaria faberi (SETFA)', '1 (1=0-20%)');

====

System: Setaria faberi (SETFA)
Test: Pre-emergence herbicidal glasshouse test
Type: in vivo
Conditions: sprayed after one day cultivation, 250 g/ha, evaluated after 13 days, five-point scale
measured-quantity: percentage damage caused to the plant, SETFA

INSERT INTO assay_data (smiles_record, assay_target, test_value) VALUES
  ('FC(F)c1cc(-c2c(Br)cccc2Oc2ncc(Cl)s2)on1', 'Setaria faberi (SETFA)', '5 (5=81-100%)'),
  ('FC(F)c1cc(-c2c(Cl)cccc2Oc2ncc(Cl)s2)on1', 'Setaria faberi (SETFA)', '5 (5=81-100%)'),
  ('N#Cc1cccc(Oc2ncc(Cl)s2)c1-c1cc(C(F)F)no1', 'Setaria faberi (SETFA)', '5 (5=81-100%)'),
  ('Fc1cccc(Oc2nc(Cl)cs2)c1-c1cc(C(F)F)no1', 'Setaria faberi (SETFA)', '3 (3=41-60%)'),
  ('Fc1cccc(Oc2nc(Br)cs2)c1-c1cc(C(F)F)no1', 'Setaria faberi (SETFA)', '5 (5=81-100%)'),
  ('Fc1cccc(Oc2ncc(C(F)F)s2)c1-c1cc(C(F)F)no1', 'Setaria faberi (SETFA)', '5 (5=81-100%)'),
  ('C=Cc1cnc(Oc2cccc(F)c2-c2cc(C(F)F)no2)s1', 'Setaria faberi (SETFA)', '2 (2=21-40%)'),
  ('FC(F)c1cc(-c2c(Cl)cccc2Oc2ncc(Br)s2)on1', 'Setaria faberi (SETFA)', '5 (5=81-100%)'),
  ('Fc1cccc(Oc2nccs2)c1-c1cc(C(F)F)no1', 'Setaria faberi (SETFA)', '2 (2=21-40%)');
